TARGET_OR_SYSTEM: p-EGFR L858R (BaF3-L858R cells) (Homo sapiens, UniProt P00533, L858R)
Construct: host or cells: BaF3
TEST_SUMMARY: Cell p-EGFR inhibition assay, HTRF, BaF3-L858R cells
Type: cell-based
MEASUREMENT_SETUP: 16 h treatment, maximum percentage of pEGFR inhibition
RECORDED_METRIC: Imax (%)

- COMPOUND: "Cc1cc2cc(n1)-c1cnn(C)c1OC[C@H]1CCC(C1)CN1/C(=N/C2=O)Nc2ccc(N3CCC4(CC3)CN(C3CCN(c5cc(F)c([C@H]6CCC(=O)NC6=O)c(F)c5)CC3)C4)cc21 [Example 120]"
  RECORDED_METRIC: "Imax (%)"
  DATA_VALUE: 94.2
- COMPOUND: "COC[C@H]1CN(c2ccc3c(c2)N2C[C@H]4CC[C@@H](COc5c(c(C)nn5C)-c5cc(cc(C)n5)C(=O)/N=C/2N3)C4)CCN1C1CCN(c2cc(F)c([C@H]3CCC(=O)NC3=O)c(F)c2)CC1 [Example 150]"
  RECORDED_METRIC: "Imax (%)"
  DATA_VALUE: 91.27
- COMPOUND: "COC[C@@H]1CN(c2cc3c(cc2F)N/C2=N\\C(=O)c4cc(C)nc(c4)-c4c(C)nn(C)c4OC[C@H]4CC[C@H](C4)CN23)CCN1C1CCN(c2cc(F)c([C@H]3CCC(=O)NC3=O)c(F)c2)CC1 [Example 169]"
  RECORDED_METRIC: "Imax (%)"
  DATA_VALUE: 100.12
- COMPOUND: "COC[C@@H]1CN(c2ccc3c(c2)N2CC4CC[C@H](COc5c(cnn5C)-c5cc(cc(C)n5)C(=O)/N=C/2N3)C4)CCN1C1CCN(c2ccc(C3CCC(=O)NC3=O)nc2C)CC1 (some centres unmarked) [Example 73]"
  RECORDED_METRIC: "Imax (%)"
  DATA_VALUE: 93.5
- COMPOUND: "Cc1cc2cc(n1)-c1c(C)nn(C)c1OC[C@H]1CC[C@H](C1)CN1/C(=N/C2=O)Nc2ccc(N3CCN(C4CCN(c5cc(F)c([C@H]6CCC(=O)NC6=O)c(F)c5)CC4)C[C@@H]3CF)cc21 [Example 211]"
  RECORDED_METRIC: "Imax (%)"
  DATA_VALUE: 89.34

---

TARGET_OR_SYSTEM: EGFR L858R (BaF3-L858R cells) (Homo sapiens, UniProt P00533, L858R)
Construct: host or cells: BaF3
TEST_SUMMARY: Cell degradation of EGFR, HTRF assay, BaF3-L858R cells
Format: cell-based
MEASUREMENT_SETUP: 16 h treatment, maximum percentage of degradation
RECORDED_METRIC: Dmax (%)

- MOLECULE: "Cc1cc2cc(n1)-c1cnn(C)c1OC[C@H]1CCC(C1)CN1/C(=N/C2=O)Nc2ccc(N3CCN(C4CCN(c5c(F)cc(OC6CCC(=O)NC6=O)cc5F)CC4)CC3)cc21 (some centres unmarked) [Example 111]"
  Dmax (%): 80.7
- MOLECULE: "Cc1cc2cc(n1)-c1cnn(C)c1OC[C@H]1CC[C@H](C1)CN1/C(=N/C2=O)Nc2ccc(N3CCN(C4CCN(c5ccc([C@H]6CCC(=O)NC6=O)nc5C)CC4)[C@H](C)C3)cc21 [Example 162]"
  Dmax (%): 88.6
- MOLECULE: "CC[C@H]1CN(c2ccc3c(c2)N2C[C@@H]4CC[C@H](COc5c(c(C)nn5C)-c5cc(cc(C)n5)C(=O)/N=C/2N3)C4)CCN1C1CCN(c2cc(F)c([C@H]3CCC(=O)NC3=O)c(F)c2)CC1 [Example 189]"
  Dmax (%): 87.6
- MOLECULE: "COC[C@@H]1CN(c2ccc3c(c2)N2C[C@@H]4CC[C@H](COc5c(c(C)nn5C)-c5cc(cc(C)n5)C(=O)/N=C/2N3)C4)CCN1C1CCN(c2cc(F)c(C3CCC(=O)NC3=O)nc2C)CC1 (some centres unmarked) [Example 89]"
  Dmax (%): 73.9
- MOLECULE: "Cc1cc2cc(n1)-c1c(C)nn(C)c1OC[C@H]1CC[C@H](C1)CN1/C(=N/C2=O)Nc2ccc(N3CCC(NC4CN(c5c(F)cc(OC6CCC(=O)NC6=O)cc5F)C4)CC3)cc21 (some centres unmarked) [Example 158]"
  Dmax (%): 79.8

---

TARGET_OR_SYSTEM: EGFR-L858R/C797S (H1975-clone #8 cells) (Homo sapiens, UniProt P00533, C797S/L858R)
Construct: expressed in transfected cells; host or cells: H1975 (endogenous EGFR knocked out, clone #8)
TEST_SUMMARY: Cell degradation of EGFR, HTRF assay, H1975-clone#8 (L858R/C797S) cells
Assay type: cell-based
MEASUREMENT_SETUP: 16 h treatment, maximum percentage of degradation
RECORDED_METRIC: Dmax (%)

The following compounds have reported results that may help.
- COMPOUND: "Cc1cc2cc(n1)-c1c(C)nn(C)c1OC[C@H]1CC[C@H](C1)CN1/C(=N/C2=O)Nc2ccc(N3CCC(N(C)C4CN(c5cc(F)c([C@H]6CCC(=O)NC6=O)c(F)c5)C4)CC3)cc21"
  TARGET_OR_SYSTEM: "EGFR-L858R/C797S (H1975-clone #8 cells) (Homo sapiens, UniProt P00533, C797S/L858R)"
  VALUE_UNIT: "%"
  Dmax: 87.3
- COMPOUND: "COC[C@H]1CN(c2ccc3c(c2)N2CC4CC[C@H](COc5c(cnn5C)-c5cc(cc(C)n5)C(=O)/N=C/2N3)C4)CCN1C1CCN(c2cc(F)c(C3CCC(=O)NC3=O)nc2C)CC1 (some centres unmarked)"
  TARGET_OR_SYSTEM: "EGFR-L858R/C797S (H1975-clone #8 cells) (Homo sapiens, UniProt P00533, C797S/L858R)"
  VALUE_UNIT: "%"
  Dmax: 80.2
- COMPOUND: "Cc1cc2cc(n1)-c1cnn(C)c1OC[C@H]1CC[C@H](C1)CN1/C(=N/C2=O)Nc2ccc(N3CCN([C@@H]4CCN(c5cccc6c5C(C)(C)C(=O)N6C5CCC(=O)NC5=O)C[C@@H]4F)CC3)cc21 (some centres unmarked)"
  TARGET_OR_SYSTEM: "EGFR-L858R/C797S (H1975-clone #8 cells) (Homo sapiens, UniProt P00533, C797S/L858R)"
  VALUE_UNIT: "%"
  Dmax: 61.5

a = Cc1cc2cc(n1)-c1cnn(C)c1OC[C@H]1CC[C@H](C1)CN1/C(=N/C2=O)Nc2ccc(N3CCN(CC4CCN(c5ccc(C6CCC(=O)NC6=O)nc5C)CC4)CC3)cc21 (some centres unmarked)
b = COC[C@@H]1CN(c2cc3c(cc2OC)N/C2=N\C(=O)c4cc(C)nc(c4)-c4c(C)nn(C)c4OC[C@H]4CC[C@H](C4)CN23)CCN1C1CCN(c2cc(F)c([C@H]3CCC(=O)NC3=O)c(F)c2)CC1
Between the entries labeled a and b , whose measured Dmax is lower? Which one? Tell me its label.
a
(a: 55%, b: 88.5%)

---

TARGET_OR_SYSTEM: EGFR L858R (BaF3-L858R cells) (Homo sapiens, UniProt P00533, L858R)
Construct: host or cells: BaF3
TEST_SUMMARY: Cell degradation of EGFR, HTRF assay, BaF3-L858R cells
Type: cell-based
MEASUREMENT_SETUP: 16 h treatment, EGFR degradation
RECORDED_METRIC: DC50 (nM)

The following molecules have reported results that may help.
- MOLECULE: "COC[C@@H]1CN(c2cc3c(cc2OC)N/C2=N\\C(=O)c4cc(C)nc(c4)-c4c(C)nn(C)c4OC[C@H]4CC[C@H](C4)CN23)CCN1C1CCN(c2cc(F)c([C@H]3CCC(=O)NC3=O)c(F)c2)CC1"
  TARGET_OR_SYSTEM: "EGFR L858R (BaF3-L858R cells) (Homo sapiens, UniProt P00533, L858R)"
  RECORDED_METRIC: "DC50"
  DATA_VALUE: 1.68
- MOLECULE: "Cc1cc2cc(n1)-c1cnn(C)c1OC[C@@H]1CC[C@@H](C1)CN1/C(=N/C2=O)Nc2ccc(N3CCN(C4CCN(c5ccc(C6CCC(=O)NC6=O)nc5C)CC4)CC3)cc21 (some centres unmarked)"
  TARGET_OR_SYSTEM: "EGFR L858R (BaF3-L858R cells) (Homo sapiens, UniProt P00533, L858R)"
  RECORDED_METRIC: "DC50"
  DATA_VALUE: 20.1
- MOLECULE: "COC[C@@H]1CN(c2ccc3c(c2)N2CC4CC[C@H](COc5c(cnn5C)-c5cc(cc(C)n5)C(=O)/N=C/2N3)C4)CCN1C1CCN(c2ccc(NC3CCC(=O)NC3=O)cc2C)CC1 (some centres unmarked)"
  TARGET_OR_SYSTEM: "EGFR L858R (BaF3-L858R cells) (Homo sapiens, UniProt P00533, L858R)"
  RECORDED_METRIC: "DC50"
  DATA_VALUE: 2.64

A = Cc1cc2cc(n1)-c1c(C)nn(C)c1OC[C@H]1CC[C@H](C1)CN1/C(=N/C2=O)Nc2ccc(N3CC(N(C)C4CCN(c5cc(F)c([C@H]6CCC(=O)NC6=O)c(F)c5)CC4)C3)cc21
B = Cc1cc2cc(n1)-c1c(C)nn(C)c1OC[C@H]1CC[C@H](C1)CN1/C(=N/C2=O)Nc2ccc(N3CCN(CC4CN(c5cc(F)c([C@H]6CCC(=O)NC6=O)c(F)c5)C4)[C@@H](CF)C3)cc21
Between A and B , whose recorded DC50 is greater? Which one? Tell me its label.
A
(A: 2.8 nM, B: 0.74 nM)
